Data credit: ChEMBL document CHEMBL1125524

Tested on: Rattus norvegicus
Experiment: Ratio of urinary excretion value (Na+ concentration) in treated rats to that in control rats, at a peroral dose of 0.4 mg/Kg
Type: functional, Urine
T/C values by entry
// response body must contain only the number

CCCn1c(=O)c2nc(C34CC5CC(CC3C5)C4)[nH]c2n(CCC)c1=O | 1.7

// returns reported T/C for input `CC(C)Cn1c(=O)n(C)c(=O)c2[nH]c(C34CC5CC(CC3C5)C4)nc21`
1.38

// returns reported T/C for input `CCCCn1c(=O)c2nc(C34CC5CC(CC3C5)C4)[nH]c2n(CCCC)c1=O`
2.45

----------
Test system: Rattus norvegicus
Assay: Ratio of urinary excretion value (urinary volume) in treated rats to that in control rats, at a peroral dose of 25 mg/Kg
Type: functional, Urine
Could you mark each record 1 if its T/C falls strictly under 2, and 0 if it equals or exceeds it?

Completed entries (count: 3):
CCCn1c(=O)c2c(nc(C(C3CC3)C3CC3)n2CCC)n(CCC)c1=O | 1
CCCn1c(=O)c2nc(C3CC4C=CC3C4)[nH]c2n(CCC)c1=O (stereo in doubt; 18) | 1
Nc1nc2ccc(Cl)cc2c2nc(-c3ccco3)nn12 | 1

Hello, I'm reviewing records and need to know if T/C of CCCn1c(=O)c2nc(C3CC4CCC3C4)[nH]c2n(CCC)c1=O (stereo in doubt; 19) is below 2. Could you check?
0

Hello, I'm reviewing records and need to know if T/C of `CCCn1c(=O)[nH]c(=O)c2[nH]c(C(C3CC3)C3CC3)nc21` is below 2. Could you check?
0

Hello, I'm reviewing records and need to know if T/C of `FC(F)(F)c1nnc2c(NC3CCCC3)nc3ccccc3n12` is below 2. Could you check?
0

----------
T/C values by entry
Tested on: Rattus norvegicus
Assay: Ratio of urinary excretion value (Na+ concentration) in treated rats to that in control rats, at a peroral dose of 0.4 mg/Kg
Format: functional, Urine
// response body must contain only the number

CCCn1c(=O)c2nc(C3CC4C=CC3C4)[nH]c2n(CCC)c1=O (stereo in doubt; 17) | 0.89

# get_value(readout= T/C, system= Rattus norvegicus) for `CCCn1c(=O)c2[nH]c(C3CCCC3)nc2n(CCC)c1=O`
2.28

# get_value(readout= T/C, system= Rattus norvegicus) for `CCCCn1c(=O)c2nc(C(C3CC3)C3CC3)[nH]c2n(CCCC)c1=O`
1.44

----------
Target: UniProt P25099
Sequence (P25099 whole entry): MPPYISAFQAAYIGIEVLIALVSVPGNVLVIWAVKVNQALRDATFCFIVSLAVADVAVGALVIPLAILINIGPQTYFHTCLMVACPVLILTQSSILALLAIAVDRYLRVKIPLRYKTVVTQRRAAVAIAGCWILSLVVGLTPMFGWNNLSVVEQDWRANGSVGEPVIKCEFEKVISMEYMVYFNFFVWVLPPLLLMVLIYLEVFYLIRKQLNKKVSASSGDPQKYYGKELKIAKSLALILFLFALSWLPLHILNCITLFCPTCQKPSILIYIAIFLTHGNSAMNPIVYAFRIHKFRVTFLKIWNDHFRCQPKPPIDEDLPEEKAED
MEASUREMENT_NAME: Ki (nM)
Use nM as the unit, but write only the number.

# get_value(readout= Ki, system= UniProt P25099) for `CCCn1c(=O)c2nc(C(C3CC3)C3CC3)[nH]c2n(CCC)c1=O`
0.99

----------
T/C values by entry
Test system: Rattus norvegicus
Assay: Ratio of urinary excretion value (Na+ concentration) in treated rats to that in control rats, at a peroral dose of 25 mg/Kg
Type: functional, Urine
// response body must contain only the number

CCCn1c(=O)[nH]c(=O)c2[nH]c(C34CC5CC(CC3C5)C4)nc21 | 1.51
Cn1c(=O)c2nc(-c3ccccc3)[nH]c2n(C)c1=O [8-PHENYL THEOPHYLLINE] | 1.39
CCCn1c(=O)c2nc(C3CC4C=CC3C4)[nH]c2n(CCC)c1=O (stereo in doubt; 17) | 1.72
CCCn1c(=O)c2c(nc(C(C3CC3)C3CC3)n2CC(=O)O)n(CCC)c1=O | 1.14
CCCn1c(=O)c2nc(CC34CC5CC(CC(C5)C3)C4)[nH]c2n(CCC)c1=O | 0.67

// returns reported T/C for input `CCCn1c(=O)c2c(nc(C(C3CC3)C3CC3)n2CCC)n(CCC)c1=O`
1.18

// returns reported T/C for input Cn1c(=O)c2nc[nH]c2n(C)c1=O.O [THEOPHYLLINE]
2.16

// returns reported T/C for input CCCn1c(=O)c2[nH]c(-c3ccc(OCC(=O)NCCN)cc3)nc2n(CCC)c1=O [XANTHINE AMINE CONGENER]
1.19

// returns reported T/C for input CCCn1c(=O)c2nc(C34CC5CC(CC3C5)C4)[nH]c2n(CCC)c1=O [ROLOFYLLINE]
3.44

// returns reported T/C for input `CCCn1c(=O)c2[nH]c(C3CCCC3)nc2n(CCC)c1=O`
2.46

// returns reported T/C for input `Nc1nc2ccc(Cl)cc2n2c(-c3ccccc3)nnc12`
0.89

// returns reported T/C for input `FC(F)(F)c1nnc2c(NC3CCCC3)nc3ccc(Cl)cc3n12`
1.74

// returns reported T/C for input `CCCn1c(=O)c2nc(C34CC5CC(CC(C5)C3)C4)[nH]c2n(CCC)c1=O`
2.86

// returns reported T/C for input Nc1nc2ccc(Cl)cc2c2nc(-c3ccco3)nn12 [CGS-15943]
1.46

// returns reported T/C for input `CCCn1c(=O)[nH]c(=O)c2[nH]c(C(C3CC3)C3CC3)nc21`
2.16

// returns reported T/C for input `FC(F)(F)c1nnc2c(NC3CCCC3)nc3ccccc3n12`
1.55

// returns reported T/C for input Cn1c(=O)c2c(ncn2C)n(C)c1=O [CAFFEINE]
1.55

// returns reported T/C for input CCCn1c(=O)c2nc(C3CC4CCC3C4)[nH]c2n(CCC)c1=O (stereo in doubt; 19)
2.37

// returns reported T/C for input NS(=O)(=O)c1cc(C(=O)O)c(NCc2ccco2)cc1Cl [FUROSEMIDE]
1.64

// returns reported T/C for input CCCn1c(=O)c2nc(C[C@H]3CC4CCC3C4)[nH]c2n(CCC)c1=O (stereo not given in full)
2.91
